Values compiled from patent US7683168B2.

Overview of recorded pKi for various molecules
# testedOn: human mu opioid receptor (Homo sapiens, UniProt P35372)
# Construct: purchased Perkin Elmer, Boston, Mass; 6110535; host or cells: CHO cells
# Sequence (P35372 whole entry): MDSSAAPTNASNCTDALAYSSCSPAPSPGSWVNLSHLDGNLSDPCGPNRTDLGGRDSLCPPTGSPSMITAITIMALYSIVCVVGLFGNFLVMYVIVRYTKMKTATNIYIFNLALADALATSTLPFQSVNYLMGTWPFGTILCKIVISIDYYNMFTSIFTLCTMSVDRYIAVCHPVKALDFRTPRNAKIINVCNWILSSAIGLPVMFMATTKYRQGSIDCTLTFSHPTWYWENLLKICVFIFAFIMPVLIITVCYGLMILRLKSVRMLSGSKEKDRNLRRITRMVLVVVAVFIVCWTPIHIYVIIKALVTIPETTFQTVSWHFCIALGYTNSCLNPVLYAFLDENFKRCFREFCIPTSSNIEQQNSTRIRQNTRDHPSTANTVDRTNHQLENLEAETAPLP
# testProtocol: radioligand binding, human mu opioid receptor, CHO cell membranes
# condition: species not given, read-out: μ
Friendly reminder that pKi comes from taking -log10 of the concentration in mol/L.

Example entries and their recorded answers appear below.
molecule	pKi
C[C@@H]1CN(C(c2cccc(O)c2)c2cccc(C(=O)N3CCCN(CCCCCC(=O)O)CC3)c2)[C@@H](C)CN1Cc1cccc(F)c1 (stereo partly shown)	6.65
CCOC(=O)CCCCN1CCCN(C(=O)c2cccc(C(c3cccc(O)c3)N3C[C@@H](C)N(Cc4cccc(F)c4)C[C@@H]3C)c2)CC1 (stereo partly shown)	7.80
C[C@@H]1CN([C@@H](c2cccc(O)c2)c2cccc(C(=O)N3CCN(CC(=O)O)CC3)c2)[C@@H](C)CN1CC1CC1	7.09

Shift focus to the following entry.
The molecule listed as "CCOC(=O)CCCCN1CCN(C(=O)c2cccc([C@H](c3cccc(O)c3)N3C[C@@H](C)N(Cc4ccccc4)C[C@@H]3C)c2)CC1" has a reported pKi of 8.04
